# tgt: CYP3A4 (Homo sapiens, UniProt P08684)
# Sequence (P08684 whole entry): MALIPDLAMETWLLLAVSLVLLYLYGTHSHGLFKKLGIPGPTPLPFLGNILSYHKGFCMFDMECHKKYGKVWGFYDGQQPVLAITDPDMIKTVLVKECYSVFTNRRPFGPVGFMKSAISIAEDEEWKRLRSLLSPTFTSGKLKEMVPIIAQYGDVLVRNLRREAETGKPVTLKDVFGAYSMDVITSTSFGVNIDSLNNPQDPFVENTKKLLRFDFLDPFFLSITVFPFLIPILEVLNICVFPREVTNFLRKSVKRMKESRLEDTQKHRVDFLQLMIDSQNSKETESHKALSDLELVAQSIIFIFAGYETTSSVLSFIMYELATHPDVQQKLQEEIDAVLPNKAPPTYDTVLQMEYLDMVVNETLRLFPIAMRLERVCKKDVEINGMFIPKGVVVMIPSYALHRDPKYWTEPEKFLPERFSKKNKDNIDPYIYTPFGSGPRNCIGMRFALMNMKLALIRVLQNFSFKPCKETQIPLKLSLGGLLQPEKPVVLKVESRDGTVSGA
# protocol-details: Vivid CYP3A4 red fluorescent assay
endpoint-label: IC50 (µM)
# value in µM; strip the unit string

CC(C)=CCC[C@](C)(O[C@@H]1O[C@H](CO)[C@@H](O)[C@H](O)[C@H]1O)[C@H]1CC[C@]2(C)[C@@H]1[C@H](O)C[C@@H]1[C@@]3(C)CC[C@H](O)C(C)(C)[C@@H]3CC[C@]12C [C-K, ginsenoside Compound K]	9.1

# evaluate next
Read off the recorded IC50 for `CC(C)=CCC[C@](C)(O[C@@H]1O[C@H](CO)[C@@H](O)[C@H](O)[C@H]1O)[C@H]1CC[C@]2(C)[C@@H]1[C@H](O)C[C@@H]1[C@@]3(C)CC[C@H](O[C@@H]4O[C@H](CO)[C@@H](O)[C@H](O)[C@H]4O[C@@H]4O[C@H](CO)[C@@H](O)[C@H](O)[C@H]4O)C(C)(C)[C@@H]3CC[C@]12C`
72.7

====

# tgt: CYP3A4 (Homo sapiens)
# protocol-details: Carbamazepine 10,11-epoxidation in human liver microsomes
# protocol-conditions: 1-50 µM
endpoint-label: Effect on in vitro CBZ metabolism

CC(C)(O)CCC[C@@](C)(O)[C@H]1CC[C@]2(C)[C@@H]1[C@H](O)C[C@@H]1[C@@]3(C)CC[C@H](O)C(C)(C)[C@@H]3CC[C@]12C [20(R)-25-OH-PPD, 20(R)-dammarane-3β, 12β, 20, 25-tetrol]	substantially activated
CC(C)=CCC[C@](C)(O)[C@H]1CC[C@]2(C)[C@@H]1[C@H](O)C[C@@H]1[C@@]3(C)CC[C@H](O)C(C)(C)[C@@H]3CC[C@]12C [PPD, protopanaxadiol]	substantially activated
COC(C)(C)CCC[C@](C)(O)[C@H]1CC[C@]2(C)[C@@H]1[C@H](O)C[C@@H]1[C@@]3(C)CC[C@H](O)C(C)(C)[C@@H]3CC[C@]12C [25-OCH3-PPD]	substantially activated

====

# tgt: CYP2C9 (Homo sapiens, UniProt P11712)
# Construct: purchased Invitrogen Corporation
# Sequence (P11712 whole entry): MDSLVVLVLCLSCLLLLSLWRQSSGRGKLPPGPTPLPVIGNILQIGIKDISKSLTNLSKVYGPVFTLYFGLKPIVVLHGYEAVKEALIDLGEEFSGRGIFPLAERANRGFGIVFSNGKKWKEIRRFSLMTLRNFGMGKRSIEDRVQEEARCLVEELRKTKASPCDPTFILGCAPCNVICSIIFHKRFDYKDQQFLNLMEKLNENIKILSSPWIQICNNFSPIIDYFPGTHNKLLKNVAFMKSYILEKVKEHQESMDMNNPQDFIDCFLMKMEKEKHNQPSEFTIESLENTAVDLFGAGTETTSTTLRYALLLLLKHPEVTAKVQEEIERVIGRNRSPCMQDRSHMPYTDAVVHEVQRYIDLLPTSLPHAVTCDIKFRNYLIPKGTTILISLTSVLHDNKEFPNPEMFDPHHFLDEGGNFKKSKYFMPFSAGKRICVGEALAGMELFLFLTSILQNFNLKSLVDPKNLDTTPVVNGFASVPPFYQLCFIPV
# protocol-details: Vivid CYP2C9 red fluorescent assay
# Type: in vitro ADME
# protocol-conditions: cDNA-expressed enzyme, Vivid red substrate 2 µM; maximum concentration 50 µM; read-out: IC50 CYP2C9 red
Reported pIC50 is given for each of the following compounds.
// pIC50: -log10(molar conc.)

Read off the recorded pIC50 for `CC(C)=CCC[C@](C)(O)[C@H]1CC[C@]2(C)[C@@H]1[C@H](O)C[C@@H]1[C@@]3(C)CC[C@H](O)C(C)(C)[C@@H]3[C@@H](O)C[C@]12C`
4.50

Read off the recorded pIC50 for CC(C)=CCC[C@](C)(O[C@@H]1O[C@H](CO)[C@@H](O)[C@H](O)[C@H]1O)[C@H]1CC[C@]2(C)[C@@H]1[C@H](O)C[C@@H]1[C@@]3(C)CC[C@H](O)C(C)(C)[C@@H]3CC[C@]12C [C-K, ginsenoside Compound K]
5.04

====

# tgt: UniProtKB P08684
# protocol-details: Vivid CYP3A4 green fluorescent assay
pIC50: −log10 of the molar value.
endpoint-label: pIC50

Worked set:
CC(C)(O)CCC[C@@](C)(O)[C@H]1CC[C@]2(C)[C@@H]1[C@H](O)C[C@@H]1[C@@]3(C)CC[C@H](O)C(C)(C)[C@@H]3[C@@H](O)C[C@]12C [20(R)-25-OH-PPT]	4.57
CC(C)=CCC[C@](C)(O)[C@H]1CC[C@]2(C)[C@@H]1[C@H](O)C[C@@H]1[C@@]3(C)CC[C@H](O)C(C)(C)[C@@H]3CC[C@]12C	5.03
COC(C)(C)CCC[C@](C)(O)[C@H]1CC[C@]2(C)[C@@H]1[C@H](O)C[C@@H]1[C@@]3(C)CC[C@H](O)C(C)(C)[C@@H]3CC[C@]12C	4.75

(P) CC(C)=CCC[C@](C)(O)[C@H]1CC[C@]2(C)[C@@H]1[C@H](O)C[C@@H]1[C@@]3(C)CC[C@H](O[C@@H]4O[C@H](CO)[C@@H](O)[C@H](O)[C@H]4O[C@@H]4O[C@H](CO)[C@@H](O)[C@H](O)[C@H]4O)C(C)(C)[C@@H]3CC[C@]12C
(Q) CC(C)=CCC[C@@](C)(O)[C@H]1CC[C@]2(C)[C@@H]1[C@H](O)C[C@@H]1[C@@]3(C)CC[C@H](O)C(C)(C)[C@@H]3CC[C@]12C [20(R)-PPD]
Consider entries P and Q . Which has the numerically lower pIC50? State the label of the item chosen.
P
(P: 4.06, Q: 4.99)

====

# tgt: UniProt:P08684
# protocol-details: Vivid CYP3A4 green fluorescent assay
Reported pIC50 is given for each of the following compounds.
// pIC50: -log10(molar conc.)

Worked set:
CC(C)=CCC[C@](C)(O)[C@H]1CC[C@]2(C)[C@@H]1[C@H](O)C[C@@H]1[C@@]3(C)CC[C@H](O)C(C)(C)[C@@H]3[C@@H](O)C[C@]12C	5.13
CC(C)=CCC[C@](C)(O[C@@H]1O[C@H](CO[C@@H]2OC[C@@H](O)[C@H](O)[C@H]2O)[C@@H](O)[C@H](O)[C@H]1O)[C@H]1CC[C@]2(C)[C@@H]1[C@H](O)C[C@@H]1[C@@]3(C)CC[C@H](O[C@@H]4O[C@H](CO)[C@@H](O)[C@H](O)[C@H]4O[C@@H]4O[C@H](CO)[C@@H](O)[C@H](O)[C@H]4O)C(C)(C)[C@@H]3CC[C@]12C	4.00
CC(C)=CCC[C@](C)(O[C@@H]1O[C@H](CO)[C@@H](O)[C@H](O)[C@H]1O)[C@H]1CC[C@]2(C)[C@@H]1[C@H](O)C[C@@H]1[C@@]3(C)CC[C@H](O)C(C)(C)[C@@H]3CC[C@]12C [C-K, ginsenoside Compound K]	4.52

# evaluate next
Read off the recorded pIC50 for CC(C)(O)CCC[C@@](C)(O)[C@H]1CC[C@]2(C)[C@@H]1[C@H](O)C[C@@H]1[C@@]3(C)CC[C@H](O)C(C)(C)[C@@H]3CC[C@]12C [20(R)-25-OH-PPD, 20(R)-dammarane-3β, 12β, 20, 25-tetrol]
4.59

====

# tgt: CYP3A4 (Homo sapiens, UniProt P08684)
# protocol-details: Vivid CYP3A4 green fluorescent assay
endpoint-label: IC50

Worked set:
CC(C)=CCC[C@](C)(O[C@@H]1O[C@H](CO)[C@@H](O)[C@H](O)[C@H]1O)[C@H]1CC[C@]2(C)[C@@H]1[C@H](O)C[C@@H]1[C@@]3(C)CC[C@H](O[C@@H]4O[C@H](CO)[C@@H](O)[C@H](O)[C@H]4O[C@@H]4O[C@H](CO)[C@@H](O)[C@H](O)[C@H]4O)C(C)(C)[C@@H]3CC[C@]12C	> 100 µM
CC(C)=CCC[C@](C)(O[C@@H]1O[C@H](CO)[C@@H](O)[C@H](O)[C@H]1O)[C@H]1CC[C@]2(C)[C@@H]1[C@H](O)C[C@@H]1[C@@]3(C)CC[C@H](O)C(C)(C)[C@@H]3[C@@H](O[C@@H]3O[C@H](CO)[C@@H](O)[C@H](O)[C@H]3O)C[C@]12C	> 100 µM

# evaluate next
Read off the recorded IC50 for `CC(C)=CCC[C@](C)(O[C@@H]1O[C@H](CO)[C@@H](O)[C@H](O)[C@H]1O)[C@H]1CC[C@]2(C)[C@@H]1[C@H](O)C[C@@H]1[C@@]3(C)CC[C@H](O)C(C)(C)[C@@H]3[C@@H](O[C@@H]3O[C@H](CO)[C@@H](O)[C@H](O)[C@H]3O[C@@H]3O[C@@H](C)[C@H](O)[C@@H](O)[C@H]3O)C[C@]12C`
> 100 µM
